The molecules listed here are annotated with their Fold Activity.
assay: Saturation mutagenesis of SEQ ID NO:109: dicamba decarboxylation activity of point mutants (CO2 released), fold of backbone (Tables 7, 8, Megatable 1); settings: decarboxylation activity (CO2 released) of point mutant vs unmutated backbone protein; backbone SEQ ID NO: 109
Please respond with the number in fold and leave the unit unwritten.

Supply Fold Activity value. Item: 139 (protein, Dicamba decarboxylase variant) MAQGKVALEEHFAIPETLQDSAGFVPGDYWKELQHRLLDIQDTRLKLMDAHGIETMILSLAAPAVQAIPDRRKAIEIARRANDFLAEECAKRPDRFLAFAALPLQDPDAATEELQRCVNDLGFVGALVNGFSQEGDGQTPLYYDLPQYRPFWGEVEKLDVPFYLHPRNPLPQDSRIYDGHPWLLGPTWAFAQETAVHALRLMASGLFDEHPRLNIILGHMGEGLPYMMYRIDHRIAWVKLPPRYPAKRRFMDYFNENFHITTSGNFRTQTLIDAILEIGADRILFSTDWPFENIDHAADWFNATSIAEADRLKIGRTNARRLFKLDGD 1.4

Indicate the recorded Fold Activity value for this molecule: 70 (protein, listed as Alicyclobacillus acidocaldarius) MAIEPNRAADVHTHFLPTEVLEFLKREPRIQVDLERRAPDKEPFLTVEGRWSFELKRMFVDFEAFASAYRQAGIGLALVSPLPQLFVYHLPAEMGAQVAEVYNDALRDVLAPHRERFRPLATLPLADPTAAARELERRMDEGFVGAIVGPGVGEALIGDEAFWPLWEVADARRAVLFLHPLLHADPRAARLMLPNLVGVPWETTLAAAHLVLSGLLDRYPGARVLLAHGGGFLPYQIGRIEQGYDVWPQVRGRLQDRPTAYLRRMFYDNVLWSDAALRCLIDVVGADRVLAGSDFPFDLSAWPPRPGADVSVLAGGSGREGRLS 1.7

Write down Fold Activity measured for item 147 (protein, Dicamba decarboxylase variant) MAQGKVALEEHFAIPETLQDSAGFVPGDYWKELQHRLLDIQDTRLKLMDAHGIETMILSLAAPAVQAIPDRRKAIEIARRANDFLAEECAKRPDRFLAFAALPMQDVDAATEELQRCVNDLGFVGALVNGFSQEGDGQTPLYYDLPQYRPFWGEVEKLDVPFYLHPRNPLPQDSRIYDGHPWLLGPTWAFAQETAVHALRLMASGLFDEHPRLNIILGHMGEGLPYMMYRIDHRIAWVKLPPRYPAKRRFMDYFNENFHITTSGNFRTQTLIDAILEIGADRILFSTDWPFENIDHAADWFNATSIAEADRLKIGRTNARRLFKLDLD 1.3

Query molecule follows.
Output measured Fold Activity for this item: 44 (protein, listed as Mycobacterium avium) MARIITVEEHFQHPEVSARVAELTGPAVEGLAEFGNAFSLDPDSTARLGGNRLAHMDQVGIDVQVVSHGNGSPGTLQHPEAVELCRRVNNDLAAQIAENPDRFRGFATLPLYDPAAAAEELRRCVGDLGFVGALIAGSYDGLFLDDERFDPILTAAEAVDFPIYVHPGLPEAPVSQRYYAGSWPASVHMMFSGPAFGWHAEAGIHIVRLILSGALDRHPTLKLLSGHWGELAAFYLERLDETLGLLPTGLERAPSDYYRQQVWITPSGMYNQNQLNFMTAELGAQRIIYSEDFPYVVRDNVSTFLEQAGLSEADTHAIAHTNAEALLRI 0.7
